Provenance of the data: patent US9302999B2

Tested on: rice (Oryza sativa)
experiment: Test C flooded paddy test: rice
Assay type: in vivo
run.conditions: Flood (flooded paddy test), 250 g ai/ha; visual rating after 13 to 15 days, scale 0 to 100 (0 no effect, 100 complete control)
property: Plant response rating, Rice
// no unit, no text: just the number

Name the reported Plant response rating, Rice value associated with the compound "Cc1nn(-c2ccc(F)cc2)nc1Cn1c(Cl)nc(C(F)(F)F)c1Cl"
0

Consider the compound "COc1nn(-c2ccc(C(F)(F)F)cc2)nc1Cn1cnc(C(F)(F)F)n1" and give its measured Plant response rating, Rice.
0

Find the recorded Plant response rating, Rice belonging to "Cc1nn(-c2ccc(C(F)(F)F)cc2)nc1Oc1cncc(C(F)(F)F)c1" and report it.
20

Which Plant response rating, Rice is listed for "CCc1nn(-c2ccc(C(F)(F)F)cc2)nc1Cn1cnc(C(F)(F)F)c1" ?
0

====

In this section we review reported Pigweed plant response rating values for a set of compounds.
Test system: pigweed (Amaranthus retroflexus)
experiment: Test A pre-/postemergence: pigweed
Type: in vivo
run.conditions: Postemergence, 500 g ai/ha; visual rating on 0 to 100 scale (0 no effect, 100 complete control), approximately ten days

Use the examples below as a reference point.
molecule.smiles | Pigweed plant response rating
Fc1ccc(-n2nc(Cc3ccnc(C(F)(F)F)c3)c(OC(F)F)n2)cc1 | 100
COc1cc(Cc2nn(-c3ccc(C(F)(F)F)cc3)nc2C)ccn1 | 90
CCc1nn(-c2ccc(F)cc2)nc1Cn1ccc(C(F)(F)C(F)(F)F)n1 | 100

// query Pigweed plant response rating value for entry "Cc1nn(-c2ccc(F)cc2)nc1Cc1cccc(C(F)(F)F)c1"
100

What measured Pigweed plant response rating goes with "Cc1nn(-c2ccc(C(F)(F)F)cc2)nc1Oc1ccnc(C(F)(F)F)c1" ?
100

// query Pigweed plant response rating value for entry "Cc1nn(-c2ccc(C(F)(F)F)cn2)nc1C(=O)c1cccc(C(F)(F)F)c1"
100

Any idea what Pigweed plant response rating was measured for "Cc1nn(-c2ccc(Cl)nc2)nc1C(=O)c1cccc(C(F)(F)F)c1" ?
70

GET /values?readout=Pigweed plant response rating&item= "Cc1cnccc1Oc1nn(-c2ccc(F)cc2)nc1C"
0

Which Pigweed plant response rating value is on record for "Cc1nn(-c2ccc(F)c(C(F)(F)F)c2)nc1Cc1ccnc(C(F)(F)F)c1" ?
100

Could you share which Pigweed plant response rating value was measured for "COc1nn(-c2ccc(C(F)(F)F)cc2)nc1Cn1cnc(C(F)(F)F)n1" ?
100

====

# reported Plant response rating: Canarygrass; entries follow
Test system: canarygrass (Phalaris minor)
experiment: Test D pre-/postemergence: canarygrass
Assay type: in vivo
run.conditions: Postemergence, 62 g ai/ha; scale 0 to 100 (0 no effect, 100 complete control)
Please give the numeric answer without any surrounding text.

Given "Cc1nn(-c2ccc(C(F)(F)F)c(F)c2)nc1Oc1ccnc(C(F)(F)F)c1" , state its recorded Plant response rating: Canarygrass.
20

Query: Plant response rating: Canarygrass; subject: "Cc1nn(-c2ccc(C(F)(F)F)cc2)nc1Oc1ccnc(C(F)(F)F)c1"
20

Which Plant response rating: Canarygrass is listed for "CCOc1nn(-c2ccc(F)cc2)nc1Cc1ccnc(C(F)(F)F)c1" ?
80

What value of measured Plant response rating: Canarygrass is listed for "Cc1nn(-c2ccc(C(F)(F)F)cn2)nc1Cc1cccc(C(F)(F)F)c1" ?
10

Item "Cc1nn(-c2ccc(F)c(C(F)(F)F)c2)nc1Cc1ccnc(C(F)(F)F)c1" has what recorded Plant response rating: Canarygrass?
65
